Hello, the source for this data is the MegaScale stability set (Tsuboyama et al. 2023), in case you need it.

B1: EHEE_rd2_0196 (parent)
chain: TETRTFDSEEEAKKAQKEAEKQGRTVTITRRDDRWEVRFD

variants of: B1; assay: folding stability dG (cDNA display proteolysis); higher = more stable; settings: PBS, room temperature
Note that class boundaries on folding stability dG are bottom range: < 2 kcal/mol; center range: ≥ 2 kcal/mol and < 3 kcal/mol; top range: ≥ 3 kcal/mol

{"columns": ["input sequence", "category"],
 "data": [
  ["TETRTFDSEEEAKKAQKEAEKQFRTVTITRRDDRWEVRFD [G23F]", "bottom range"],
  ["TETRTFDSEEEAKKAQKEAEKQGRTVTITRRDDRWEVRGD [F39G]", "bottom range"],
  ["TETRTFDSEEEAKKAQKEAEKQGRTVTITTRDDRWEVRFD [R30T]", "bottom range"],
  ["TETRTFDSEEEAKKAQKEAEVQGRTVTITRRDDRWEVRFD [K21V]", "center range"],
  ["TETRTFDSEEEAKKAQKEAEKQGRTVTITRRDDRWETRFD [V37T]", "bottom range"],
  ["TETRTFDSEEEAAKAQKEAEKQGRTVTITRRDDRWEVRFD [K13A]", "center range"],
  ["TETRTFDSEEEAKKAQAEAEKQGRTVTITRRDDRWEVRFD [K17A]", "top range"],
  ["TETRTFDSEEEAKKAQKEAEKQGRTVTIVRRDDRWEVRFD [T29V]", "top range"],
  ["TETRTFDSEEEAKKAQKEYEKQGRTVTITRRDDRWEVRFD [A19Y]", "top range"],
  ["TETRTFDSEEEAKKAQKEAEKQGRTVTITRRDDRWVVRFD [E36V]", "center range"],
  ["TETRTFDSEEEAKKAQKEAEKQGRTVTITRRDDRWEGRFD [V37G]", "bottom range"],
  ["TETRTFDSEEEAKKAQKEAEKQGSTVTITRRDDRWEVRFD [R24S]", "center range"],
  ["TETRTFDSEEEAKKAQKEAEKQGRTVTITRRDDRWELRFD [V37L]", "center range"],
  ["METRTFDSEEEAKKAQKEAEKQGRTVTITRRDDRWEVRFD [T1M]", "top range"],
  ["TETRTFDSEEELKKAQKEAEKQGRTVTITRRDDRWEVRFD [A12L]", "bottom range"],
  ["TETRTFDSEEEAKKAQNEAEKQGRTVTITRRDDRWEVRFD [K17N]", "center range"],
  ["TETRTFDSEEEAKKAQKEAEKQGQTVTITRRDDRWEVRFD [R24Q]", "center range"],
  ["TETRTFDSEEEAKCAQKEAEKQGRTVTITRRDDRWEVRFD [K14C]", "top range"],
  ["TETRTFDSEEEAKKAQKEAEKQGRTVTITRMDDRWEVRFD [R31M]", "center range"],
  ["TETRTFDSEEEAKKAQKEAEKQGRTVTITRRDDRWEVNFD [R38N]", "center range"],
  ["TETRTFDSEEEAKKAQKEAEKQGRTVTSTRRDDRWEVRFD [I28S]", "bottom range"],
  ["TETRTFDSEEEAKKAQKEAEKQGATVTITRRDDRWEVRFD [R24A]", "center range"],
  ["TETRTFDSEEEAKKRQKEAEKQGRTVTITRRDDRWEVRFD [A15R]", "bottom range"],
  ["TETRTFDSEEEAKKAQKEAEKQGRTVTIHRRDDRWEVRFD [T29H]", "center range"],
  ["TETRTFDSEEEAKKAQKEAEKQGRTVTITRRDDRWECRFD [V37C]", "bottom range"],
  ["TETRTFDSEEEAKKAQKEAEKQGRTVTITRLDDRWEVRFD [R31L]", "center range"],
  ["TETRTFDSEEEAKKAQKEAEKQGRTVTITRRDSRWEVRFD [D33S]", "center range"],
  ["TETRTFDSEEEAKKAQKEAEKQGRTVTITRRDKRWEVRFD [D33K]", "center range"],
  ["TETRTFDSEEEAKKAQKEAEKMGRTVTITRRDDRWEVRFD [Q22M]", "top range"],
  ["TETRWFDSEEEAKKAQKEAEKQGRTVTITRRDDRWEVRFD [T5W]", "top range"],
  ["TETRTFDSEEEAKKAQKEAEKQGRTVTDTRRDDRWEVRFD [I28D]", "bottom range"],
  ["TETRTFDSEEEAKKAQKEAEKQGRTVTIFRRDDRWEVRFD [T29F]", "center range"],
  ["TETRTFDSEEEAKKAQKEAEKQGRTVTITIRDDRWEVRFD [R30I]", "center range"],
  ["TETRTFDSEEEAKAAQKEAEKQGRTVTITRRDDRWEVRFD [K14A]", "top range"],
  ["TETRTFDSEELAKKAQKEAEKQGRTVTITRRDDRWEVRFD [E11L]", "center range"],
  ["TETRTFDSEEEAKKAQKEAEKQGRTVVITRRDDRWEVRFD [T27V]", "center range"],
  ["TETRTFTSEEEAKKAQKEAEKQGRTVTITRRDDRWEVRFD [D7T]", "center range"],
  ["TETRTFDSEEEAKKAQKPAEKQGRTVTITRRDDRWEVRFD [E18P]", "bottom range"],
  ["TETRTFDSEQEAKKAQKEAEKQGRTVTITRRDDRWEVRFD [E10Q]", "center range"],
  ["TETRTFDSEEEAKKAQKEAEKQGRTVTITRRDDRWEVRFW [D40W]", "center range"],
  ["TETRTFDSEEEAKKAQKEAEKQGRTVTITRRDERWEVRFD [D33E]", "center range"],
  ["TETRTFDSEEEAKKAQKEAEKQGRTVTITRRDDYWEVRFD [R34Y]", "top range"],
  ["TETRTFDSEEEAKKAQKEAEKQGRTVTITRVDDRWEVRFD [R31V]", "top range"]
]}
